# target-or-test-system: Cathepsin S (Homo sapiens, UniProt P25774)
# Sequence (P25774 115-331, species assumed): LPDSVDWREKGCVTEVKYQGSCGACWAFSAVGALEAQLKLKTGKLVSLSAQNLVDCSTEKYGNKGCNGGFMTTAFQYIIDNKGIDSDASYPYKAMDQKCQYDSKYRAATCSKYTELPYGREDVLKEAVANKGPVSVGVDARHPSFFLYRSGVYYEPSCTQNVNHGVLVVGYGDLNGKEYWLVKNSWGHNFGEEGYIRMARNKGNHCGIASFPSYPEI
# protocol-description: Cathepsin S inhibition assay (fluorogenic peptide substrate)
# Format: biochemical
# settings: Table II, compounds of Formula I; read-out: Ki Cat. S
Ki by entry:

Example entries and their recorded answers appear below.
compound: COc1ccc(NCCNC(=O)[C@H](Cc2ccc(I)cc2)NC(=O)c2cccc(C)c2)cc1
target-or-test-system: Cathepsin S (Homo sapiens, UniProt P25774)
Ki: < 100 nM
//
compound: COc1ccc(NCCNC(=O)[C@H](CC2CCCCC2)NC(=O)c2cc(Cl)ccc2F)cc1
target-or-test-system: Cathepsin S (Homo sapiens, UniProt P25774)
Ki: < 100 nM
//
compound: COc1ccc(NCCNC(=O)[C@H](CC2CCCCC2)NC(=O)c2ccc(OCc3ccccc3)cc2)cc1
target-or-test-system: Cathepsin S (Homo sapiens, UniProt P25774)
Ki: < 100 nM
//
compound: Cc1ccccc1CC(=O)N[C@@H](CC1CCCCC1)C(=O)NCCNc1ccc(F)cc1
target-or-test-system: Cathepsin S (Homo sapiens, UniProt P25774)
Ki: < 100 nM
//
compound: COc1ccc(NCCNC(=O)[C@H](Cc2ccccc2C(F)(F)F)NC(=O)c2cccc(C)c2)cc1
target-or-test-system: Cathepsin S (Homo sapiens, UniProt P25774)
Ki: < 100 nM
//
compound: O=C(Cc1cc(F)ccc1F)N[C@@H](CC1CCCCC1)C(=O)NCCNc1ccc(F)cc1
target-or-test-system: Cathepsin S (Homo sapiens, UniProt P25774)
Ki: < 100 nM
//
compound: O=C(N[C@@H](CC1CCCCC1)C(=O)NCCNc1ccc(OC(F)(F)F)cc1)c1ccc(-c2ccc(OC(F)(F)F)cc2)s1
target-or-test-system: Cathepsin S (Homo sapiens, UniProt P25774)
Ki: < 1000 nM
//
compound: COc1ccc(NCCNC(=O)[C@H](COCc2ccccc2)NC(=O)c2cccc(C)c2)cc1
target-or-test-system: Cathepsin S (Homo sapiens, UniProt P25774)
Ki: < 1000 nM
//
compound: COc1ccc(NCCNC(=O)[C@H](CC2CCCCC2)NC(=O)c2sc(-c3ccc(C(F)(F)F)cc3)nc2C)cc1
target-or-test-system: Cathepsin S (Homo sapiens, UniProt P25774)
Ki: < 100 nM
//
compound: COc1ccc(NCCNC(=O)[C@H](CC2CCCCC2)NC(=O)c2cc(-c3ccc(Cl)cc3)cs2)cc1
target-or-test-system: Cathepsin S (Homo sapiens, UniProt P25774)
Ki: < 100 nM

stdin: Entry `COc1ccc(NCCNC(=O)[C@H](Cc2ccccc2)NC(=O)c2cc(C)c(OC)c(C)c2)cc1` , system Cathepsin S (Homo sapiens, UniProt P25774): what Ki was measured?
stdout: < 100 nM

stdin: Form field: Ki recorded for `O=C(Cc1ccc(C(F)(F)F)cc1)N[C@@H](CC1CCCCC1)C(=O)NCCNc1ccc(F)cc1` with Cathepsin S (Homo sapiens, UniProt P25774) (enter value)
stdout: < 100 nM

stdin: Find the measured Ki: item `COc1ccc(NCCNC(=O)[C@H](Cc2c[nH]c3ccccc23)NC(=O)c2cccc(C)c2)cc1` , target or system Cathepsin S (Homo sapiens, UniProt P25774).
stdout: < 100 nM

stdin: Quick check: Ki on Cathepsin S (Homo sapiens, UniProt P25774), item COc1ccc(NCCNC(=O)C(NC(=O)c2cccc(C)c2)c2ccc(Cl)cc2Cl)cc1 (stereo not drawn) ?
stdout: < 100 nM

stdin: Missing value: Ki, Cathepsin S (Homo sapiens, UniProt P25774), entry `Cc1nc(N)sc1C(=O)N[C@@H](CC1CCCCC1)C(=O)NCCNc1ccc(OC(F)(F)F)cc1` . Fill in?
stdout: < 100 nM

stdin: Notebook: pull reported Ki for Cathepsin S (Homo sapiens, UniProt P25774), entry `O=C(N[C@@H](CC1CCCCC1)C(=O)NCCNc1ccc(OC(F)(F)F)cc1)c1ccc(-c2cccc(C(F)(F)F)c2)s1`
stdout: < 100 nM

stdin: Request - read-out Ki | tested on Cathepsin S (Homo sapiens, UniProt P25774) | compound COc1ccc(NCCNC(=O)C(NC(=O)c2cccc(C)c2)c2cccs2)cc1 (stereo not drawn)
stdout: < 10000 nM

stdin: Provide the documented Ki with Cathepsin S (Homo sapiens, UniProt P25774) as the system for Cc1nc(-c2ccc(C(=O)N[C@@H](CC3CCCCC3)C(=O)NCCNc3ccc(OC(F)(F)F)cc3)cc2)no1 [Compound 28]
stdout: < 1000 nM

stdin: Kindly state the measured Ki obtained for `COc1ccc(NCCNC(=O)[C@H](CC2CCCCC2)NC(=O)CNc2ccccc2)cc1` with Cathepsin S (Homo sapiens, UniProt P25774).
stdout: < 100 nM

stdin: Checklist item: Ki tested on Cathepsin S (Homo sapiens, UniProt P25774), entry `COc1ccc(NCCNC(=O)[C@H](CC2CCCCC2)NC(=O)C2(c3ccccc3)CC2)cc1` , value?
stdout: < 100 nM

stdin: Form: Entry = `O=C(Cc1cccc(Cl)c1)N[C@@H](CC1CCCCC1)C(=O)NCCNc1ccc(F)cc1` | System = Cathepsin S (Homo sapiens, UniProt P25774) | Ki = ____
stdout: < 100 nM

stdin: Identify the measured Ki of `COc1ccc(NCCNC(=O)[C@H](Cc2ccc(-c3ccccc3C(C)=O)cc2)NC(=O)c2cccc(C)c2)cc1` for Cathepsin S (Homo sapiens, UniProt P25774).
stdout: < 1000 nM

stdin: Give the reported Ki for `COc1ccc(NCCNC(=O)[C@H](CC2CCCCC2)NC(=O)c2ccc3ncsc3c2)cc1` (system: Cathepsin S (Homo sapiens, UniProt P25774)).
stdout: < 100 nM

stdin: Given the entry `COc1ccc(NCCNC(=O)[C@H](Cc2ccccc2Cl)NC(=O)c2ccc(-c3cccc(C(F)(F)F)c3)o2)cc1` , what Ki was observed with Cathepsin S (Homo sapiens, UniProt P25774)?
stdout: < 100 nM

stdin: // fetch Cathepsin S (Homo sapiens, UniProt P25774) Ki for `COc1ccc(NCCNC(=O)[C@H](Cc2ccccc2)NC(=O)c2cnn(-c3ccc(Cl)cc3)c2C(F)(F)F)cc1`
stdout: < 1000 nM

stdin: Hello, I am looking for reported Ki with Cathepsin S (Homo sapiens, UniProt P25774) for COc1ccc(NCCNC(=O)C(NC(=O)c2cccc(C)c2)c2ccc(OC)cc2OC)cc1 (stereo not drawn) . Could you help?
stdout: < 10000 nM

stdin: I'm curious: which Ki was measured for `COc1ccc(NCCNC(=O)[C@H](Cc2ccc(Oc3cccc(C)c3)cc2)NC(=O)c2cccc(C)c2)cc1` tested on Cathepsin S (Homo sapiens, UniProt P25774)?
stdout: < 100 nM

stdin: Lab note: need Ki with Cathepsin S (Homo sapiens, UniProt P25774) for entry `COc1ccc(NCCNC(=O)[C@H](CCC2CCCCC2)NC(=O)c2ccc(N3CCOCC3)cc2)cc1` , please look it up.
stdout: < 1000 nM

stdin: For Cathepsin S (Homo sapiens, UniProt P25774), provide Ki of `COc1ccc(NCCNC(=O)[C@H](CC2CCCCC2)NC(=O)c2ccc(C)c(Br)c2)cc1` please.
stdout: < 100 nM

stdin: GET /values?readout=Ki&system=Cathepsin S (Homo sapiens, UniProt P25774)&item= `COc1ccc(NCCNC(=O)[C@H](Cc2ccc(OCc3ccccc3)cc2)NC(=O)c2cccc(C)c2)cc1`
stdout: < 100 nM

----------
# target-or-test-system: Cathepsin S (Homo sapiens)
# protocol-description: Cathepsin S inhibition assay (fluorogenic peptide substrate)
# Assay type: biochemical
# settings: Table II, compounds of Formula I; read-out: Ki Cat. S
measured-endpoint: Ki

Some compounds with recorded Ki:
compound: COc1ccc(NCCNC(=O)[C@H](Cc2ccccc2)NC(=O)c2cccc(C)c2Cl)cc1
reported: < 1000 nM
//
compound: COc1ccc(NCCNC(=O)[C@H](CC2CCCCC2)NC(=O)c2c[nH]c3ccccc23)cc1
reported: < 100 nM
//
compound: COc1ccccc1-c1ccc(C(=O)N[C@@H](CC2CCCCC2)C(=O)NCCNc2ccc(OC(F)(F)F)cc2)o1
reported: < 100 nM
//
compound: COc1ccc(NCCNC(=O)[C@H](Cc2ccc(-c3cccc(N)c3)cc2)NC(=O)c2cccc(C)c2)cc1
reported: < 1000 nM
//
compound: COc1ccc(NCCNC(=O)[C@H](CC2CCCCC2)NC(=O)c2cc(C)c(OC)c(C)c2)cc1
reported: < 100 nM

stdin: API: value(readout= Ki, system= Cathepsin S (Homo sapiens), query= `COc1ccc(NCCNC(=O)[C@H](Cc2ccccc2)NC(=O)c2cc(C)c(OCc3ccccc3)c(C)c2)cc1` )
stdout: < 1000 nM

stdin: API: value(readout=Ki, system=Cathepsin S (Homo sapiens)) for record `COc1ccc(NCCNC(=O)[C@H](CC2CCCCC2)NC(=O)c2cnn(-c3ccccc3)c2C(F)(F)F)cc1`
stdout: < 100 nM

stdin: For Cathepsin S (Homo sapiens), provide Ki of `CS(=O)(=O)c1ccc(C(=O)N[C@@H](CC2CCCCC2)C(=O)NCCNc2ccc(OC(F)(F)F)cc2)cc1` please.
stdout: < 1000 nM

stdin: Form: Entry = COc1ccc(NCCNC(=O)C(NC(=O)c2cccc(C)c2)c2ccc(C)cc2C)cc1 (stereo not drawn) | System = Cathepsin S (Homo sapiens) | Ki = ____
stdout: < 1000 nM

stdin: Lab note: need Ki for `COc1ccc(NCCNC(=O)[C@H](Cc2ccccc2)NC(=O)Nc2cccc3ccccc23)cc1` on Cathepsin S (Homo sapiens), anyone have it?
stdout: < 1000 nM

stdin: Report Ki for `COc1ccc(NCCNC(=O)[C@H](Cc2ccccc2)NC(=O)Nc2ccccc2C)cc1` tested on Cathepsin S (Homo sapiens).
stdout: < 1000 nM

stdin: Item `COc1ccc(NCCNC(=O)[C@H](Cc2ccc(Oc3ccccc3C)cc2)NC(=O)c2cccc(C)c2)cc1` with Cathepsin S (Homo sapiens) - Ki?
stdout: < 1000 nM

stdin: Requested read-out Ki, target or system Cathepsin S (Homo sapiens), entry `COc1ccc(NCCNC(=O)[C@H](CC2CCCCC2)NC(=O)c2cccc(F)c2C)cc1`
stdout: < 100 nM

stdin: Find the measured Ki: item `COc1ccc(NCCNC(=O)[C@H](CCC2CCCCC2)NC(=O)c2cccc(C#N)c2)cc1` , target or system Cathepsin S (Homo sapiens).
stdout: < 100 nM

stdin: Recorded Ki for `COc1ccc(NCCNC(=O)[C@H](Cc2ccc(-c3cc(F)ccc3OC)cc2)NC(=O)c2cccc(C)c2)cc1` with Cathepsin S (Homo sapiens), please?
stdout: < 1000 nM

Where do these numbers come from? They come from patent US7109243B2.
